- Assayed Target: Dihydroorotate dehydrogenase (fumarate) (Leishmania major, UniProt Q4QEW7)
- Sequence (Q4QEW7 whole entry): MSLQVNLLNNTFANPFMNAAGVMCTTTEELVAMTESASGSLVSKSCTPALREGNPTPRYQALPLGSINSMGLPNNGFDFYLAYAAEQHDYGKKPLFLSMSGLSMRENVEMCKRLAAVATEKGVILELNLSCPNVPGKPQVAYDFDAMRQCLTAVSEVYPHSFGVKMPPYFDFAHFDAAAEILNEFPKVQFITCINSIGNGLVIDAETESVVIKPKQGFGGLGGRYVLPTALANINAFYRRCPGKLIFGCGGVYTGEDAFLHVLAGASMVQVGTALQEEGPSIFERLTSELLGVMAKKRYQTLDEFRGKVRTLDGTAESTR
- Experimental Protocol: Inhibition of recombinant oligo-histidine-tagged Leishmania major DHODH expressed in Escherichia coli BL21(DE3) cells using DHO as substrate measured after 60 secs
- Study Conditions: read-out: IC50
Readout Name: log10 IC50 (log10 of the value in µM)
A difference of one corresponds to tenfold IC50; all values are log10 with IC50 in µM.

compound=CC(=O)OCC1=C2[C@@H](OC(C)=O)C[C@@](C)(OC(C)=O)C(=O)CC[C@@]3(C)O[C@@H]3[C@H]2OC1=O readout_number=1.49
compound=C=C(C)C(=O)O[C@@H]1C[C@](C)(O)[C@@H]2C(=O)C=C(C)[C@@H]2[C@H]2OC(=O)C(=C)[C@@H]21 readout_number=2.82
compound=O=C(/C=C/c1ccc(O)c(O)c1)O[C@@H]1C[C@@](O)(C(=O)O)C[C@@H](O)[C@@H]1O readout_number=3.05
compound="O=c1ccc2ccccc2o1 [COUMARIN]" readout_number=2.81
compound=C=C(C)C(=O)O[C@H]1C[C@@]2(C)OC(=CC2=O)[C@@H](C)C[C@H]2OC(=O)C(=C)[C@H]12 readout_number=2.16
compound="COc1ccc(-c2oc3cc(O)c(OC)c(O)c3c(=O)c2OC)cc1 [SANTIN]" readout_number=2.42

Notebook: C=C1C(=O)O[C@@H]2/C=C(/CO)C3=CC(=O)[C@@](C)(C[C@@H](OC(=O)/C(C)=C/C)[C@@H]12)O3 [BUDLEIN A] , log10 IC50 read as 2.42

# log10 IC50 (compound: COc1cc(/C=C/C(=O)O)ccc1O [FERULATE] ) is 2.62

====

Items are presented alongside their recorded ΔTm.
- Assayed Target: Dihydroorotate dehydrogenase (fumarate) (Leishmania major) (UniProt Q4QEW7)
- Experimental Protocol: Binding affinity to Leishmania major DHODH assessed as change in melting temperature at 1000 uM by SYPRO orange dye-based differential scanning fluorimetry
Give the quantity in °C, number only.

Here's what some known entries look like.
smiles_repr=C=C(C)C(=O)O[C@H]1C[C@@]2(C)OC(=CC2=O)[C@@H](C)C[C@H]2OC(=O)C(=C)[C@H]12 assayed_target="Dihydroorotate dehydrogenase (fumarate) (Leishmania major) (UniProt Q4QEW7)" readout_number=-0.45
smiles_repr=C[C@@H]1CC[C@H]2[C@@H](C)C(=O)O[C@@H]3O[C@@]4(C)CC[C@@H]1[C@]32OO4 assayed_target="Dihydroorotate dehydrogenase (fumarate) (Leishmania major) (UniProt Q4QEW7)" readout_number=-0.52
smiles_repr=C=C1C(=O)O[C@@H]2[C@H]3C(C)=CC(=O)C3=C(C)C[C@@H](OC(=O)[C@]3(C)O[C@@H]3C)[C@@H]12 assayed_target="Dihydroorotate dehydrogenase (fumarate) (Leishmania major) (UniProt Q4QEW7)" readout_number=-1.01
smiles_repr=O=C(O)c1cc(=O)[nH]c(=O)[nH]1 assayed_target="Dihydroorotate dehydrogenase (fumarate) (Leishmania major) (UniProt Q4QEW7)" readout_number=1.62

Attention now shifts to the item below.
Record CC(=O)OCC1=C2[C@@H](OC(C)=O)C[C@@](C)(OC(C)=O)C(=O)CC[C@@]3(C)O[C@@H]3[C@H]2OC1=O , field ΔTm: -0.64
